# credit: the supplement of paper PMC9732359

- assay_info: protein stability index of a GFP-peptide fusion (yeast GPS) (PSI 1-4); higher = more stable; sorted into four equal gates, so the index is relative within each strain
- measurement_context: doa10∆
measurement_label: protein stability index

Sample PVVQVGIFIKILNDSLI [IRR1] ; protein stability index observed: 1.5

Sample DFIQNVGRLWDQTFPIN [ECM29] ; protein stability index observed: 3.13

Sample HVKNFGFANSLTFILGQ [YML031W/NDC1] ; protein stability index observed: 1.56

Sample TTAEPKAKRAKTGSAST [TAF14] ; protein stability index observed: 3.2

Sample QKMAKAKKQNRPLPQWI [RPL39] ; protein stability index observed: 2.97

Sample HDEKTLAPSKHQPITSE [SIR4] ; protein stability index observed: 2.08

Sample QTMQLIKNVQDLLILTR [SRB6] ; protein stability index observed: 1.51

Sample IRARIPFYGSYTETDPA [SRP54] ; protein stability index observed: 2.96

Sample FGRKKRKGGPATAEKLP [RPT2] ; protein stability index observed: 3.56

Sample ARDLATMTYEEVAKRLV [FAS1] ; protein stability index observed: 2.94

Sample DNVIVINHKINNKITQL [SIR3] ; protein stability index observed: 2.08

Sample IPVNKRRGAHGSELSSK [SIR3] ; protein stability index observed: 3

Sample SMKYDNGVIIAADNLGS [PRE4] ; protein stability index observed: 2.66

Sample TKVLQFAAKQRQELQMQ [SNF2] ; protein stability index observed: 2.3

Sample SLDMNSMNKELIAIVSK [NUT1] ; protein stability index observed: 1.56

----------
- assay_info: protein stability index of a GFP-peptide fusion (yeast GPS) (PSI 1-4); higher = more stable; sorted into four equal gates, so the index is relative within each strain
- measurement_context: doa10∆
measurement_label: protein stability index
Number, no unit, nothing else.

Sample ELAGGNASLTIEDEDEP [SMC1] ; protein stability index observed: 3.03

Sample ILDSLPSVIHSSVEMLL [YDL116W/NUP84] ; protein stability index observed: 1.97

Sample VFVDGEANWPLPVNIRR [RPO21] ; protein stability index observed: 2.99

Sample QVPDSLDDQIFVCEKSI [RPN6] ; protein stability index observed: 3.01

Sample DYNDVEVNSKKKNKRAL [BRR2] ; protein stability index observed: 3.07

----------
- assay_info: protein stability index of a GFP-peptide fusion (yeast GPS) (PSI 1-4); higher = more stable; sorted into four equal gates, so the index is relative within each strain
- measurement_context: san1∆
Kindly supply the reported protein stability index values for the records listed here.

Sample NGDEGDDENEPKRKRRL [YOR098C/NUP1] ; protein stability index observed: 3.17

Sample NSSSSTPNTNSNSTPNA [SWI1] ; protein stability index observed: 3.12

Sample MGIVQDTLCGIRKLTLR [RPO21] ; protein stability index observed: 1.87

Sample EETDDEDKQNIEINEDN [RRI2] ; protein stability index observed: 3.26

Sample RAGVTHVLSRLSYISAL [RET1] ; protein stability index observed: 1.22

Sample EDNGIVKALRNVPGVET [RPL4A] ; protein stability index observed: 2.46

Sample AILQEKILSILNRSHFA [ECM29] ; protein stability index observed: 2.27

Sample FVVPTFGQDVSPMINST [SNM1] ; protein stability index observed: 2.89

Sample NEPTQKDEEETEYFENK [DSN1] ; protein stability index observed: 2.71

Sample PNKVKTEDIRIRAQNFK [RRP6] ; protein stability index observed: 2.56

Sample NTNTENENRNTGAGVDV [SNF11] ; protein stability index observed: 2.66

Sample QDVIKVLYQSNATHDED [SWP82] ; protein stability index observed: 2.69

Sample RNVNWIERLTKRQFNNS [ITC1] ; protein stability index observed: 3.05

Sample ILLYGPPGTGKTLCARA [RPT1] ; protein stability index observed: 1.36

Sample HLILDKLNQKYDIVKFL [GRR1] ; protein stability index observed: 1.3

Sample PPQAGDRSLADDYDYVM [RPB8] ; protein stability index observed: 3.33

Sample DHTVDEIDHVEYYVMMD [SRB8] ; protein stability index observed: 2.96

Sample VNGLLQVLMDINTLNGG [GAL11] ; protein stability index observed: 3

Sample NNAVRFSKQCLISNAIY [ECM29] ; protein stability index observed: 1.82

Sample YKWTQGINNLSEIWDVS [PRP8] ; protein stability index observed: 3.12

Sample IGLDTQQVEGKLSQMIL [RPN6] ; protein stability index observed: 3.04

Sample LVNRKPIPFEFQAVIQK [SNF2] ; protein stability index observed: 2.71

Sample DHYESNQLVAKLLLLRI [SRB8] ; protein stability index observed: 2.84

Sample NSGIIPGNRNADNVDKI [FAS2] ; protein stability index observed: 3.03

Sample FLDSMAQKYASIVGVDL [FAS2] ; protein stability index observed: 1.96

Sample QRRYVIKEKVQFNATIN [ITC1] ; protein stability index observed: 1.63

----------
- assay_info: protein stability index of a GFP-peptide fusion (yeast GPS) (PSI 1-4); higher = more stable; sorted into four equal gates, so the index is relative within each strain
- measurement_context: pdr5∆
measurement_label: protein stability index
Number, no unit, nothing else.

Sample FDQAGKKVSRRNARAAR [RPL13B] ; protein stability index observed: 3.01

Sample PFFSSNTSSLQSFQNPF [YIL149C/MLP2] ; protein stability index observed: 2.25

Sample CMEVASAFMKFSKAIEW [BRR2] ; protein stability index observed: 2.21

Sample FLDSVHKQGSSYVAVLG [POP7] ; protein stability index observed: 2.17

Sample ELSDSDRQIINEKMQLL [SIR4] ; protein stability index observed: 2.8

Sample RQTLAPYAVLSQFYELR [YJR042W/NUP85] ; protein stability index observed: 2.75

Sample LLLAAQIVSYCSNNKNS [SSN2] ; protein stability index observed: 1.42

Sample VELPYGAHGYSGFYTFS [PRE1] ; protein stability index observed: 2.32

----------
- assay_info: protein stability index of a GFP-peptide fusion (yeast GPS) (PSI 1-4); higher = more stable; sorted into four equal gates, so the index is relative within each strain
- measurement_context: ubr1∆
measurement_label: protein stability index
Number, no unit, nothing else.

Sample NSIDVPIRINSTEEIEY [YMR129W/POM152] ; protein stability index observed: 2.6

Sample DFVRKGGLQKGKLVVSQ [SIR3] ; protein stability index observed: 3.35

Sample NIKPVEQHHINNLKNSG [GAL11] ; protein stability index observed: 2.47

Sample LSKRQKRKSAQEPELSL [SMC4] ; protein stability index observed: 3.4

Sample EFTLFMDIAERIAVLHQ [YGL172W/NUP49] ; protein stability index observed: 2.9

Sample VASSTNFTSPTAVVNNA [SWI1] ; protein stability index observed: 2.91

Sample GSLSGNSSSMEEVMRIA [ESC2] ; protein stability index observed: 2.73

Sample LQRDLIQTKEQVSINSN [YIL149C/MLP2] ; protein stability index observed: 3.27

Sample SFDAVSDSIELLKQYPK [YJR042W/NUP85] ; protein stability index observed: 2.59

----------
- assay_info: protein stability index of a GFP-peptide fusion (yeast GPS) (PSI 1-4); higher = more stable; sorted into four equal gates, so the index is relative within each strain
- measurement_context: san1∆
measurement_label: protein stability index

Sample DILSKLYLLLARVFEIW [SNF11] ; protein stability index observed: 2.19

Sample TKNIPITHRDLHYDKDY [SSN8] ; protein stability index observed: 2.87

Sample EKSDALVGVYRQQQENS [SMC1] ; protein stability index observed: 3.41

----------
- assay_info: protein stability index of a GFP-peptide fusion (yeast GPS) (PSI 1-4); higher = more stable; sorted into four equal gates, so the index is relative within each strain
- measurement_context: ubr1∆
measurement_label: protein stability index
Number, no unit, nothing else.

Sample NKGWKLQSLNESKDLLR [SRB4] ; protein stability index observed: 2.93

Sample QRTTTGARVFGALKGAS [RPL5] ; protein stability index observed: 3.05

Sample PAHTKYMLIEEAASSNK [ITC1] ; protein stability index observed: 3.01

Sample AFNFSFNTSRNVEPTEN [YAR002W/NUP60] ; protein stability index observed: 3.04

----------
Kindly supply the reported protein stability index values for the records listed here.
- assay_info: protein stability index of a GFP-peptide fusion (yeast GPS) (PSI 1-4); higher = more stable; sorted into four equal gates, so the index is relative within each strain
- measurement_context: pdr5∆
Number, no unit, nothing else.

Sample LGNTSSVANTPSEIPDA [SWI3] ; protein stability index observed: 3.06

Sample DLKLLFNTEAEQTVSAV [RGR1] ; protein stability index observed: 2.93

Sample PKHSYLSGNPLTSVTND [SIR4] ; protein stability index observed: 3.03

Sample LLTEELAKSGSTEETTA [TAF14] ; protein stability index observed: 3.05

Sample LNNTHVISSGPLAAGNF [RPC53] ; protein stability index observed: 3
